Cited source for all entries: PubChem BioAssay AID434951

Molecular target: Hypoxia-inducible factor 1-alpha (Homo sapiens) (UniProt Q16665)
Sequence (Q16665 whole entry, looked up): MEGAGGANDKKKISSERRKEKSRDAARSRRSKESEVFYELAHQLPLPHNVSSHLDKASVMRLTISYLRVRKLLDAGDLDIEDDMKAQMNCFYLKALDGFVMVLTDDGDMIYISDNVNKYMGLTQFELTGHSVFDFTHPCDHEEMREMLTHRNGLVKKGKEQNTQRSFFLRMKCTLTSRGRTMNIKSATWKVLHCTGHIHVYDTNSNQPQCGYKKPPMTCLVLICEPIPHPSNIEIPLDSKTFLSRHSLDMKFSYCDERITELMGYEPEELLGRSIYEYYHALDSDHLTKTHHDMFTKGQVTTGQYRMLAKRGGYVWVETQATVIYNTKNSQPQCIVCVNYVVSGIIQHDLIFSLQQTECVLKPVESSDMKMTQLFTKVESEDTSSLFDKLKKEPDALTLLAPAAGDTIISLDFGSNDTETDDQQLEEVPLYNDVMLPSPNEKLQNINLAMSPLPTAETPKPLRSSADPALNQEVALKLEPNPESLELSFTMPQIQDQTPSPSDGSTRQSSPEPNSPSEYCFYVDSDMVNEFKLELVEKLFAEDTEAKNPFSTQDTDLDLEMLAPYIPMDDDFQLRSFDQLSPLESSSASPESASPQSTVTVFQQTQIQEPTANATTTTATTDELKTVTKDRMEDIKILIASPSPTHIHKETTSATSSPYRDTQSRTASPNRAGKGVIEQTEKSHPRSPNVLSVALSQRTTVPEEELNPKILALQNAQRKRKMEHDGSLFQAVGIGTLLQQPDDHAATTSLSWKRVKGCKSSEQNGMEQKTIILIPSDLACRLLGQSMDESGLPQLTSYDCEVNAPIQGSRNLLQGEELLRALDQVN
Test: activators of HIF1alpha nuclear accumulation, confirmation, imaging, fluorescence, U2OS GFP-HIF1alpha (AID 434951)
Conditions: U2OS GFP-HIF1alpha nuclear intensity, high-content imaging
Active and inactive are the calls of the source.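 The calls were made as follows: active = a fitted half-maximal concentration EC50 for the rise in nuclear signal no higher than ten times the top dose tested; inconclusive = flat fit with activity between 30% and 70%, or unusable fit; inactive = EC50 beyond ten times the top dose.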
Pick one: active, inactive

Study these solved cases before continuing.
[[record]]
molecule = "Cc1ccc2c(c1)C1NC(=S)NC(C)(O2)C1C(=O)Nc1ccc(Cl)cc1 (stereo not given)"
experimental_system = "Hypoxia-inducible factor 1-alpha (Homo sapiens) (UniProt Q16665)"
group_label = "inactive"

[[record]]
molecule = "O=C(Nc1nc2c(F)cc(F)cc2s1)c1ccccn1"
experimental_system = "Hypoxia-inducible factor 1-alpha (Homo sapiens) (UniProt Q16665)"
group_label = "active"

[[record]]
molecule = "Oc1ccc(Cl)cc1CNCC1CCCO1 (stereo not given)"
experimental_system = "Hypoxia-inducible factor 1-alpha (Homo sapiens) (UniProt Q16665)"
group_label = "inactive"

[[record]]
molecule = "Oc1cccc(C(Nc2nccs2)c2ccc3cccnc3c2O)c1 (stereo not given)"
experimental_system = "Hypoxia-inducible factor 1-alpha (Homo sapiens) (UniProt Q16665)"
group_label = "active"

[[record]]
molecule = "Cc1ccccc1CN1C(=O)CSc2ccc(C(=O)N3CCOCC3)cc21"
experimental_system = "Hypoxia-inducible factor 1-alpha (Homo sapiens) (UniProt Q16665)"
group_label = "inactive"


Exam item: // param item: CCCOC(=O)NC1C(NC(=O)OCCC)N(C)C(=O)N1C (stereo not given) ; yields the recorded call
Marked response: inactive

Exam item: // param item: `COc1ccccc1C(=O)Nc1ccccc1SC(=O)c1ccccc1OC` ; yields the recorded call
Marked response: inactive

Exam item: // param item: `Cc1ccc(Nc2c(-c3ccccn3)nc3cccc(C)n23)cc1` ; yields the recorded call
Marked response: active

Exam item: // param item: `Cc1cccc(-c2noc(CN(C)S(=O)(=O)c3cc(Cl)ccc3Cl)n2)c1` ; yields the recorded call
Marked response: inactive

Exam item: // param item: COc1ccc(CN2CCNC(=O)C2CC(=O)NC2CCCC2)c(OC)c1 (stereo not given) ; yields the recorded call
Marked response: inactive

Exam item: // param item: `Cc1cc(NC(=O)CCN2C(=O)/C(=C\c3ccccc3)SC2=S)no1` ; yields the recorded call
Marked response: active

Exam item: // param item: `COc1nccc(C(F)(F)F)c1C(=O)NC(=O)Nc1ccccc1` ; yields the recorded call
Marked response: inactive

Exam item: // param item: CC(C)(C)c1ccc(N2C(=O)CC(C/C=C/c3ccccc3)C2=O)cc1 (stereo not given) ; yields the recorded call
Marked response: inactive

Exam item: // param item: `O=C(NCCCN1CCOCC1)c1cc(-c2cccs2)on1` ; yields the recorded call
Marked response: active

Exam item: // param item: `CC(=O)Nc1ccc(S(=O)(=O)/N=C2\C(=O)c3ccccc3C([O-])=C2n2cc[n+](-c3ccccn3)c2)cc1` ; yields the recorded call
Marked response: inactive

Exam item: // param item: `Oc1ccc(CN2CCc3ccccc3C2)c2cccnc12` ; yields the recorded call
Marked response: active

Exam item: // param item: `CC(=O)c1cccc(NC(=O)CN(C)S(=O)(=O)c2cccc3nsnc23)c1` ; yields the recorded call
Marked response: inactive

Exam item: // param item: `CCCCn1c(N)c(N(CC)C(=O)c2cc(OC)cc(OC)c2)c(=O)[nH]c1=O` ; yields the recorded call
Marked response: inactive

Exam item: // param item: `CSc1nc(C)cc(C)c1C#N` ; yields the recorded call
Marked response: inactive

Exam item: // param item: `CS(=O)(=O)c1ccc2nc(NC(=O)C3CC3)sc2c1` ; yields the recorded call
Marked response: inactive

Exam item: // param item: `CCOc1ccc(C(=O)NC(=S)Nc2cccc(NC(=O)c3ccco3)c2)cc1[N+](=O)[O-]` ; yields the recorded call
Marked response: inactive

Exam item: // param item: CC1CC(C)CN(S(=O)(=O)c2ccc3c(c2)oc(=O)n3CC(=O)NCCCOC(C)C)C1 (stereo not given) ; yields the recorded call
Marked response: inactive

Exam item: // param item: CC(NC(=O)c1cc2c(s1)CS(=O)(=O)C2)c1ccccc1 (stereo not given) ; yields the recorded call
Marked response: inactive
